# target.entity: HCV NS3 protease (UniProt P26663)
# Sequence (P26663 1027-1206, other chains not shown): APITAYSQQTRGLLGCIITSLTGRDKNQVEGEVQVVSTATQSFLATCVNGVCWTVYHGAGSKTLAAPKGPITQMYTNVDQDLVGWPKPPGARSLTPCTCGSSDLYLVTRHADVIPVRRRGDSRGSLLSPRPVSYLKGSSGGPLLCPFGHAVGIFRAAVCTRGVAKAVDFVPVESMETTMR
# Type: biochemical, HCV genotype 1b
# Parameters: rows headed: IC50 (μM); IC50 (μM)
# assay.context: Table 7
pIC50: −log10 of the molar value.

| compound | pIC50 |
| --- | --- |
| C=CC1CC1(NC(=O)C1CC(Oc2cc(-c3csc(NC)n3)nc3cc(OC)ccc23)CN1C(=O)C(NC(=O)OC(C)(C)C)C(C)(C)C)C(=O)O (centres unmarked) [compound 717] | 7.55 |
| C=CC1C[C@]1(NC(=O)[C@@H]1C[C@@H](Oc2cc(N(C)C)nc3cc(OC)ccc23)CN1C(=O)[C@@H](NC(=O)OC(C)(C)C)C(C)(C)C)C(=O)O (some centres unmarked) [compound 712] | 7.00 |
| C=CC1C[C@]1(NC(=O)[C@@H]1C[C@@H](Oc2cc(C(C)C)nc3cc(OC)ccc23)CN1C(=O)[C@@H](NC(=O)OC(C)(C)C)C(C)(C)C)C(=O)O (some centres unmarked) [compound 726] | 6.60 |
| C=CC1CC1(NC(=O)C1CC(Oc2cc(N3CCC(OC)CC3)nc3cc(OC)ccc23)CN1C(=O)C(NC(=O)OC(C)(C)C)C(C)(C)C)C(=O)O (centres unmarked) [compound 721] | 7.35 |
| C=CC1CC1(NC(=O)C1CC(Oc2cc(C=Cc3ccccc3)nc3cc(OC)ccc23)CN1C(=O)C(NC(=O)OC(C)(C)C)C(C)(C)C)C(=O)O (centres unmarked) [compound 702] | 7.00 |
| C=CC1CC1(NC(=O)C1CC(Oc2cc(-c3cccnc3)nc3cc(OC)ccc23)CN1C(=O)C(NC(=O)OC(C)(C)C)C(C)(C)C)C(=O)O (centres unmarked) [compound 727] | 7.15 |
| C=CC1CC1(NC(=O)C1CC(Oc2cc(-c3cnn(C)c3)nc3cc(OC)ccc23)CN1C(=O)C(NC(=O)OC(C)(C)C)C(C)(C)C)C(=O)O (centres unmarked) [compound 701] | 7.55 |
| C=CC1CC1(NC(=O)C1CC(Oc2cc(-c3csc(N)n3)nc3cc(OC)ccc23)CN1C(=O)C(NC(=O)OC(C)(C)C)C(C)(C)C)C(=O)O (centres unmarked) [compound 709] | 7.68 |
| C=CC1CC1(NC(=O)C1CC(Oc2cc(-c3cccs3)nc3cc(OC)ccc23)CN1C(=O)C(NC(=O)OC(C)(C)C)C(C)(C)C)C(=O)O (centres unmarked) [compound 706] | 7.49 |
| C=CC1CC1(NC(=O)C1CC(Oc2cc(OCC)nc3cc(OC)ccc23)CN1C(=O)C(NC(=O)OC(C)(C)C)C(C)(C)C)C(=O)O (centres unmarked) [compound 703] | 7.33 |
| C=CC1CC1(NC(=O)C1CC(Oc2cc(N3CCOCC3)nc3cc(OC)ccc23)CN1C(=O)C(NC(=O)OC(C)(C)C)C(C)(C)C)C(=O)O (centres unmarked) [compound 705] | 6.89 |
| C=CC1CC1(NC(=O)C1CC(Oc2cc(C3CCCCC3)nc3cc(OC)ccc23)CN1C(=O)C(NC(=O)OC(C)(C)C)C(C)(C)C)C(=O)O (centres unmarked) [compound 737] | 6.96 |
| C=CC1CC1(NC(=O)C1CC(Oc2cc(-c3nccs3)nc3cc(OC)ccc23)CN1C(=O)C(NC(=O)OC(C)(C)C)C(C)(C)C)C(=O)O (centres unmarked) [compound 707] | 7.64 |
| C=CC1CC1(NC(=O)C1CC(Oc2cc(-c3ccccn3)nc3cc(OC)ccc23)CN1C(=O)C(NC(=O)OC(C)(C)C)C(C)(C)C)C(=O)O (centres unmarked) [compound 715] | 7.51 |
| C=CC1CC1(NC(=O)C1CC(Oc2cc(N3CCC(C)CC3)nc3cc(OC)ccc23)CN1C(=O)C(NC(=O)OC(C)(C)C)C(C)(C)C)C(=O)O (centres unmarked) [compound 724] | 7.12 |
| C=CC1CC1(NC(=O)C1CC(Oc2cc(-c3csc(NC(C)=O)n3)nc3cc(OC)ccc23)CN1C(=O)C(NC(=O)OC(C)(C)C)C(C)(C)C)C(=O)O (centres unmarked) [compound 719] | 7.74 |
| C=CC1CC1(NC(=O)C1CC(Oc2cc(-c3cccnc3)nc3cc(OC)ccc23)CN1C(=O)C(NC(=O)OC(C)(C)C)C(C)(C)C)C(=O)O (centres unmarked) [compound 716] | 7.10 |
| C=CC1CC1(NC(=O)C1CC(Oc2cc(OCC(C)C)nc3cc(OC)ccc23)CN1C(=O)C(NC(=O)OC(C)(C)C)C(C)(C)C)C(=O)O (centres unmarked) [compound 735] | 7.24 |
| C=CC1CC1(NC(=O)C1CC(Oc2cc(-c3csc(C)n3)nc3cc(OC)ccc23)CN1C(=O)C(NC(=O)OC(C)(C)C)C(C)(C)C)C(=O)O (centres unmarked) [compound 711] | 7.80 |
| C=CC1CC1(NC(=O)C1CC(Oc2cc(-c3csc(-c4csc(C)n4)n3)nc3cc(OC)ccc23)CN1C(=O)C(NC(=O)OC(C)(C)C)C(C)(C)C)C(=O)O (centres unmarked) [compound 732] | 7.70 |
| C=CC1CC1(NC(=O)C1CC(Oc2cc(-c3ccncn3)nc3cc(OC)ccc23)CN1C(=O)C(NC(=O)OC(C)(C)C)C(C)(C)C)C(=O)O (centres unmarked) [compound 725] | 7.34 |
| C=CC1CC1(NC(=O)C1CC(Oc2cc(N(C)c3ccccc3)nc3cc(OC)ccc23)CN1C(=O)C(NC(=O)OC(C)(C)C)C(C)(C)C)C(=O)O (centres unmarked) [compound 708] | 6.82 |
| C=CC1CC1(NC(=O)C1CC(Oc2cc(OCCC)nc3cc(OC)ccc23)CN1C(=O)C(NC(=O)OC(C)(C)C)C(C)(C)C)C(=O)O (centres unmarked) [compound 731] | 7.51 |
